Ref: PubChem BioAssay (NCI)

test system: KM12 colon; test: NCI tumour cell line growth inhibition, 48 h
resultType: TGI

| compound | dataValue |
| --- | --- |
| CS(=O)(=O)Nc1ccc(Nc2c3ccccc3nc3cc(Cl)ccc23)cc1 | 18.5 µM |
| CN1CCN(Cc2ccc(NC(=O)c3cncc(C#Cc4cnc5cccnn45)c3)cc2C(F)(F)F)CC1 | 2.41 µM |
| CC(C)S1=C2C(=O)CC(C)(C)CC2=Nc2ccccc21 (configuration not stated) | > 100 µM |
| COc1cc(/C=C/C(=O)c2c(-c3ccc(Cl)cc3)nc3sc(C)nn23)cc(OC)c1OC | > 100 µM |
| CN1Cc2c(ccc3c2OCO3)[C@@H]2[C@H](O)Cc3cc4c(cc3[C@@H]21)OCO4 | 12.4 µM |
| COc1c(-c2nc3nc(N4CCN(C)CC4)ccc3[nH]2)cc(OC)c2c1nc(CCl)n2C | 30.8 µM |
| O=C(C[N+]1(c2ccccc2)CCOCC1)c1ccccc1 | > 100 µM |
| N#Cc1c(N)n(-c2nc3ccccc3s2)c(=O)c2cc([N+](=O)[O-])ccc12 | > 51.3 µM |
| CCOC(=O)C1C(=O)C(=O)N2CCc3c([nH]c4ccccc34)C12 (configuration not stated) | > 100 µM |
| NC1CC(n2ccc(=O)[nH]c2=O)OC1C(O)CO (configuration not stated) | > 100 µM |
| COc1ccc(-c2cc(=O)c3cc(OC)c(OC)cc3[nH]2)cc1OC | > 100 µM |
| CCOC(=O)c1sc2nc(SC)nc3c2c1NCN3c1ccccc1Cl | > 100 µM |

====

test system: HOP-62 NSCLC; assay: NCI tumour cell line growth inhibition, 48 h

| compound | testTarget | GI50 |
| --- | --- | --- |
| COc1cc(/C=C/C(=O)c2c(-c3ccc(Cl)cc3)nc3sc(C)nn23)cc(OC)c1OC | HOP-62 NSCLC | 10.4 µM |
| COC(=O)C(NC(=O)c1ccccc1)c1ccc(OC)c(I)c1 (configuration not stated) | HOP-62 NSCLC | > 100 µM |
| Clc1ccc(N=CNc2ccc(-c3nc4ccccc4[nH]3)cc2)cc1 | HOP-62 NSCLC | > 100 µM |
| Cc1cc(N(CCCl)CCCl)ccc1/C=N\NC(=O)c1cccnc1 | HOP-62 NSCLC | 19.5 µM |
| CC(C)=NO.CC(C)=NO.CC(C)=NO.CC(C)=NO.[Ti] | HOP-62 NSCLC | > 100 µM |
| COc1cc2c(cc1OCCCN1CCN(CCCn3c4ccccc4c4ccccc43)CC1)N=C[C@@H]1CCCN1C2=O | HOP-62 NSCLC | 0.242 µM |
| O=c1cccccc1[O-].O=c1cccccc1[O-].O=c1cccccc1[O-].[Dy+3] | HOP-62 NSCLC | 33 µM |

====

system: MOLT-4 leukemia; assay: NCI tumour cell line growth inhibition, 48 h
resultType: TGI

| compound | testTarget | dataValue |
| --- | --- | --- |
| Oc1ccc(CCNc2nc3ccccc3c3[nH]c4ccccc4c23)cc1 | MOLT-4 leukemia | > 100 µM |
| CNC(=O)N(C)C(=O)c1ccccc1C(=O)N(C)C(=O)NC | MOLT-4 leukemia | > 10 µM |
| CS(=O)(=O)Nc1ccc(Nc2c3ccccc3nc3cc(Cl)ccc23)cc1 | MOLT-4 leukemia | 16.2 µM |
| N/N=C(\N)SCc1ccc(N=C=S)cc1 | MOLT-4 leukemia | > 100 µM |
| CN1CCN(Cc2ccc(NC(=O)c3cncc(C#Cc4cnc5cccnn45)c3)cc2C(F)(F)F)CC1 | MOLT-4 leukemia | 5.34 µM |
| COC(=O)N/N=C(\c1nc2ccc(Cl)cc2[nH]c1=O)C(O)c1ccc([N+](=O)[O-])cc1 (stereo unspecified) | MOLT-4 leukemia | > 100 µM |
| O=[N+]([O-])c1cccc2c1[nH]c1c(-c3ccccc3)nccc12 | MOLT-4 leukemia | 4.4 µM |
| O=CC12CCCN1CCC2 | MOLT-4 leukemia | > 100 µM |
| Cc1cccc2c1Oc1ncccc1C2NC(=O)CN(C)C (stereo unspecified) | MOLT-4 leukemia | > 10 µM |
| Cc1ccc(C)c(C(=O)CC2OC(O)C(Cl)C2Cl)c1 (stereo unspecified) | MOLT-4 leukemia | > 100 µM |
| CCOC(=O)C1(NC(=O)OC(C)(C)C)CCc2[nH]oc(=O)c2C1 (stereo unspecified) | MOLT-4 leukemia | > 100 µM |
